Taken from the RNAGym collection of RNA variant scans (doi:10.7554/elife.80360).

B1: HDV Ribozyme (parent)
chain: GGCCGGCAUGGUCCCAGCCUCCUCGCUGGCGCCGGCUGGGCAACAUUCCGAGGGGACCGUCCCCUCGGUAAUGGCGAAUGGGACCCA

variants of: B1; experiment: self-cleavage, relative activity (ratio to wild type); higher = more cleavage; co-transcriptional
Listed here are variants together with their documented self-cleavage.
// response body must contain only the number

variant_name	self-cleavage
C3G U20G	0
U20C U46G	0
G11U A51C	0.324

Please examine the following record next.
Quick note, self-cleavage for U27G A71G landed at 0.875
